Source of measurements: paper PMC6555819

studyTarget: LXRa:RXRa (Homo sapiens, UniProt Q13133;P19793 full;full)
Sequence (Q13133 whole entry, chain 1 of 2): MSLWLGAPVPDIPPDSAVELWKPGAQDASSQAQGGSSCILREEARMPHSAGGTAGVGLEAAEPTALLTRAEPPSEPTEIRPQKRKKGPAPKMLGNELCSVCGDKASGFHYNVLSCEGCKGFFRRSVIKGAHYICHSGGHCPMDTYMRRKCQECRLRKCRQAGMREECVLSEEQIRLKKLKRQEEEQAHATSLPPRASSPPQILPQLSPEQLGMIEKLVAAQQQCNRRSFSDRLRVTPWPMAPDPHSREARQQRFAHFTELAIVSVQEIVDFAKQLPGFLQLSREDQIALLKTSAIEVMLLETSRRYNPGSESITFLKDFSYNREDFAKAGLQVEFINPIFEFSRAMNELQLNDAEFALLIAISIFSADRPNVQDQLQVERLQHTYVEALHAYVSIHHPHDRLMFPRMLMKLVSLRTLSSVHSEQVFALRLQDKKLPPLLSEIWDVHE
Sequence (P19793 whole entry, chain 2 of 2): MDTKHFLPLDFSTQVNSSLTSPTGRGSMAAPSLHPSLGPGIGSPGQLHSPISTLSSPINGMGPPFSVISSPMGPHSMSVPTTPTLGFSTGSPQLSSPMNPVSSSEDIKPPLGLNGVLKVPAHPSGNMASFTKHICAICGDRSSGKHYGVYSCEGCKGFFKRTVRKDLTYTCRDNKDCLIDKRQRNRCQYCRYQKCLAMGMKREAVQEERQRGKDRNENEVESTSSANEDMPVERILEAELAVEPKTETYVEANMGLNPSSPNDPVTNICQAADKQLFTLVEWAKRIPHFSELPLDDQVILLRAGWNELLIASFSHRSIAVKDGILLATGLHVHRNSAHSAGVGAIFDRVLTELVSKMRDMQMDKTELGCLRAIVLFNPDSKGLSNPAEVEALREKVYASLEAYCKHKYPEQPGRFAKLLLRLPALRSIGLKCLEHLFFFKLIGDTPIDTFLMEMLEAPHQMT
testMethodNotes: no ligand; PBM; 270 nM : 90 nM RXRa; PBS pH 7.4, 2% milk, 0.02% Triton X-100, 1 mM DTT, BSA, 0.4 mg/ml salmon testes DNA
measurementConditions: tags: His kept;His cleaved; copies: 1;1; label: surface-attached array probe

binder	binding signal
NRC3_random_hg19_346_o1 (dsDNA) DNA 1: GCGCCTTCTGCTACAGGGCAAAGGTGGCACACAAAGGCGATTGACAGCGTAGAATGAAGG DNA 2: CCTTCATTCTACGCTGTCAATCGCCTTTGTGTGCCACCTTTGCCCTGTAGCAGAAGGCGC	0 PBM z-score against 500 random probes
